Give measured herbicide rating, HORVW for each item. Keep answers brief.
# Tested on: Hordeum vulgare
# experiment summary: Postemergence herbicidal activity (Example 67)
# Type: in vivo
# condition label: pos; 800 g/ha; rated after 10-21 days
# Method: Herbicidal evaluation of compounds of the invention is conducted on the following plant species: The soil is a prepared horticultural substrate containing 30% peat, 20% volcanic clay, 30% bark residues and 20% polyamide/styromull in a 1:3 mixture with loamy sand. […] After 10-21 days, the treated plants are evaluated and rated according to the rating system provided below.

Check out these entries, answers already filled in.
>>> observed_measurement("CCCCc1nsc(C(=O)N[C@@H](C)c2ccccc2)n1")
"2 (6-15%)"
>>> observed_measurement("COCCc1nsc(C(=O)NC(C)c2cccs2)n1 (racemic)")
"3 (16-29%)"
>>> observed_measurement("C[C@H](NC(=O)c1nc(-c2ccc(Cl)cc2)ns1)c1ccccc1")
"2 (6-15%)"

For each entry beneath this line, provide reported herbicide rating, HORVW.
1. CC(NC(=O)c1nc(C=Cc2ccccc2)ns1)c1cccs1 (racemic)
2. COc1ccc(-c2nsc(C(=O)N[C@@H](C)c3ccccc3)n2)cc1

Out:
0
2 (6-15%)

* * *

Consider the following compounds; for each one, report its herbicide rating, ABUTH.
# System: Abutilon theophrasti
# experiment summary: Postemergence herbicidal activity (Example 67)
# Format: in vivo
# condition label: pos; 800 g/ha; rated after 10-21 days

Examples from the recorded data:
>>> observed_measurement("C[C@H](NC(=O)c1nc(-c2ccc(Cl)cc2)ns1)c1ccccc1")
"6 (65-79%)"
>>> observed_measurement("CCCCc1nsc(C(=O)N[C@@H](C)c2ccccc2)n1")
"5 (45-64%)"
>>> observed_measurement("COc1ccc(-c2nsc(C(=O)NC(C)c3ccc(C)s3)n2)cc1 (racemic)")
0
>>> observed_measurement("CC(NC(=O)c1nc(-c2ccccc2F)ns1)c1cccs1 (racemic)")
"8 (91-99%)"
>>> observed_measurement("CC(NC(=O)c1nc(C=Cc2ccccc2)ns1)c1cccs1 (racemic)")
"1 (1-5%)"
>>> observed_measurement("CC(NC(=O)c1nsc(-c2cccc(C(F)(F)F)c2)n1)c1cccs1 (racemic)")
"1 (1-5%)"

Record herbicide rating, ABUTH per entry; entries follow.
1. C[C@H](NC(=O)c1nc(C=Cc2ccccc2)ns1)c1ccccc1
2. COCCc1nsc(C(=O)N[C@@H](C)c2ccccc2)n1
3. COc1ccc(-c2nsc(C(=O)N[C@@H](C)c3ccccc3)n2)cc1

Out:
["3 (16-29%)", "1 (1-5%)", "1 (1-5%)"]

* * *

# Tested on: Hordeum vulgare
# experiment summary: Postemergence herbicidal activity (Example 67)
# Assay type: in vivo
# condition label: pos; 800 g/ha; rated after 10-21 days
Would you mind telling me the reported herbicide rating, HORVW of each entry?

Examples with answers:
>>> observed_measurement("COc1ccc(-c2nsc(C(=O)NC(C)c3cccs3)n2)cc1 (racemic)")
"3 (16-29%)"
>>> observed_measurement("CC(NC(=O)c1nsc(-c2cccc(C(F)(F)F)c2)n1)c1cccs1 (racemic)")
"2 (6-15%)"
>>> observed_measurement("CC(NC(=O)c1nc(-c2ccc(Cl)cc2)ns1)c1cccs1 (racemic)")
"3 (16-29%)"
>>> observed_measurement("CC(NC(=O)c1nc(-c2ccccc2F)ns1)c1cccs1 (racemic)")
"3 (16-29%)"
>>> observed_measurement("O=C(NCc1cccs1)c1nc(C=Cc2ccccc2)ns1")
0
>>> observed_measurement("COc1ccc(-c2nsc(C(=O)NCc3cccs3)n2)cc1")
0

Continue with the molecule presented below.
In: Looking for the measured herbicide rating, HORVW of COc1ccc(-c2nsc(C(=O)NC(C)c3ccc(C)s3)n2)cc1 (racemic) , can you help?
Out: 2 (6-15%)

* * *

# Test system: Chenopodium album
# experiment summary: Postemergence herbicidal activity (Example 67)
# Assay type: in vivo
# condition label: pos, 800 g/ha
value type: CHE AL rating

>>> observed_measurement("CC(NC(=O)c1nsc(-c2ccccc2F)n1)c1cccs1 (racemic)")
"4 (30-44%)"

For each of the compounds below, state CHE AL rating.
1. C[C@H](NC(=O)c1nsc(-c2ccccc2)n1)c1ccccc1
2. O=C(NCc1cccs1)c1nsc(-c2ccccc2)n1
3. COc1ccc(-c2nsc(C(=O)Nc3cccc4c3CCCC4)n2)cc1
4. O=C(Nc1ccc(F)cc1F)c1nsc(-c2cccc(C(F)(F)F)c2)n1
5. Cc1ccc(-c2nc(C(=O)NC(C)c3cccs3)ns2)cc1 (racemic)
6. O=C(NCc1cccs1)c1nc(-c2ccccc2F)ns1
7. O=C(NC1CCCc2ccccc21)c1nc(-c2ccccc2F)ns1 (racemic)
8. O=C(Nc1ccccc1)c1nsc(-c2cccc(C(F)(F)F)c2)n1

Out:
7 (80-90%)
4 (30-44%)
0
1 (1-5%)
5 (45-64%)
3 (16-29%)
0
0

* * *

# System: Galium aparine
# experiment summary: Postemergence herbicidal activity (Example 67)
# Type: in vivo
# condition label: pos, 800 g/ha
value type: GAL AP rating

Known GAL AP rating results, listed for orientation:
>>> observed_measurement("COc1ccc(-c2nsc(C(=O)NC3CCCc4ccccc43)n2)cc1 (racemic)")
"3 (16-29%)"
>>> observed_measurement("O=C(Nc1ccc(F)cc1)c1nsc(-c2cccc(C(F)(F)F)c2)n1")
0
>>> observed_measurement("O=C(Nc1ccccc1)c1nsc(-c2cccc(C(F)(F)F)c2)n1")
0

Quick batch: GAL AP rating for everything below.
1. O=C(NCc1cccs1)c1nsc(-c2ccccc2)n1
2. C[C@H](NC(=O)c1nc(-c2c(F)cccc2F)ns1)c1ccccc1

Out:
1: 6 (65-79%); 2: 6 (65-79%)

Below are some compounds; for each one, tell me its GAL AP rating.
1. C[C@H](NC(=O)c1nsc(-c2ccccc2)n1)c1ccccc1
2. O=C(NCc1cccs1)c1nc(-c2ccccc2F)ns1

Out:
1. 7 (80-90%)
2. 2 (6-15%)

// batch mode: one GAL AP rating value per listed entry
1. COc1ccc(-c2nsc(C(=O)Nc3cccc4c3CCCC4)n2)cc1
2. O=C(NCc1cccs1)c1nc(-c2c(F)cccc2F)ns1
3. O=C(NCc1cccs1)c1nc(-c2cccc(F)c2)ns1
4. O=C(Nc1cccc(F)c1)c1nsc(-c2cccc(C(F)(F)F)c2)n1
5. O=C(Nc1ccc(F)cc1F)c1nsc(-c2cccc(C(F)(F)F)c2)n1
6. CC(NC(=O)c1nc(-c2cccc(Cl)n2)ns1)c1cccs1 (racemic)
7. C[C@H](NC(=O)c1nc(-c2cccc(Cl)n2)ns1)c1ccccc1

Out:
1: 3 (16-29%); 2: 0; 3: 3 (16-29%); 4: 0; 5: 0; 6: 4 (30-44%); 7: 5 (45-64%)

For each of the compounds below, note its GAL AP rating.
1. COc1ccc(-c2nsc(C(=O)NC(C)c3ccsc3)n2)cc1 (racemic)
2. C[C@H](NC(=O)c1nsc(-c2cccc(C(F)(F)F)c2)n1)c1ccccc1

Out:
0
0

Give GAL AP rating for each of the items listed below.
1. COc1ccc(-c2nc(C(=O)NC(C)c3cccs3)ns2)cc1 (racemic)
2. O=C(NC1CCCc2ccccc21)c1nc(-c2ccccc2F)ns1 (racemic)
3. Cc1ccc(-c2nc(C(=O)NC(C)c3cccs3)ns2)cc1 (racemic)
4. C[C@H](NC(=O)c1nsc(-c2ccccc2F)n1)c1ccccc1
5. CC(NC(=O)c1nc(-c2cccc(F)c2)ns1)c1cccs1 (racemic)
6. C[C@H](NC(=O)c1nsc(-c2ccc(F)cc2)n1)c1ccccc1

Out:
6 (65-79%)
2 (6-15%)
3 (16-29%)
6 (65-79%)
2 (6-15%)
8 (91-99%)

For each of the items listed, what is its GAL AP rating?
1. CC(NC(=O)c1nsc(-c2ccccc2F)n1)c1cccs1 (racemic)
2. CC(NC(=O)c1nc(-c2c(F)cccc2F)ns1)c1cccs1 (racemic)
3. C[C@H](NC(=O)c1nc(-c2cccc(F)c2)ns1)c1ccccc1

Out:
7 (80-90%)
6 (65-79%)
6 (65-79%)

* * *

# System: Triticum aestivum
# experiment summary: Postemergence herbicidal activity (Example 67)
# Type: in vivo
# condition label: pos, 800 g/ha
value type: TRZ AW rating

Record excerpt, results attached:
>>> observed_measurement("C[C@H](NC(=O)c1nc(-c2cccc(Cl)n2)ns1)c1ccccc1")
"5 (45-64%)"
>>> observed_measurement("COc1ccc(-c2nsc(C(=O)Nc3cccc4c3CCCC4)n2)cc1")
"1 (1-5%)"
>>> observed_measurement("O=C(Nc1cccc(F)c1)c1nsc(-c2cccc(C(F)(F)F)c2)n1")
"3 (16-29%)"
>>> observed_measurement("CC(NC(=O)c1nc(-c2cccc(Cl)n2)ns1)c1cccs1 (racemic)")
"1 (1-5%)"
>>> observed_measurement("O=C(NCc1cccs1)c1nsc(-c2ccccc2)n1")
"3 (16-29%)"
>>> observed_measurement("CC(NC(=O)c1nc(-c2cccc(F)c2)ns1)c1cccs1 (racemic)")
"2 (6-15%)"

Please go through the list and note TRZ AW rating for each molecule.
1. COc1ccc(-c2nc(C(=O)NC(C)c3cccs3)ns2)cc1 (racemic)
2. C[C@H](NC(=O)c1nsc(-c2ccccc2F)n1)c1ccccc1
3. C[C@H](NC(=O)c1nsc(-c2ccccc2)n1)c1ccccc1
4. CC(NC(=O)c1nsc(-c2ccccc2F)n1)c1cccs1 (racemic)
5. COc1ccc(-c2nsc(C(=O)NC(C)c3ccsc3)n2)cc1 (racemic)
6. O=C(NCc1cccs1)c1nc(-c2c(F)cccc2F)ns1

Out:
["3 (16-29%)", "5 (45-64%)", "5 (45-64%)", "3 (16-29%)", 0, 0]

Batch of 3 molecules: report TRZ AW rating for each.
1. O=C(Nc1ccc(F)cc1F)c1nsc(-c2cccc(C(F)(F)F)c2)n1
2. O=C(Nc1ccccc1)c1nsc(-c2cccc(C(F)(F)F)c2)n1
3. C[C@H](NC(=O)c1nc(-c2cccc(F)c2)ns1)c1ccccc1

Out:
["1 (1-5%)", "2 (6-15%)", "3 (16-29%)"]

Where do the numbers come from? From patent EP0726261A1.
